# protocol: Thermal stability of goat milk proteins during pasteurization (90 °C, 15 s)
# Assay type: physicochemical
# test_settings: doses up to 20 mg Ca per 100 g of milk
# Description: Doses of calcium (5, 10, 15, and 20 mg Ca 100 g^−1 milk), based on the calcium compound’s molecular weight, were added to 100 g of raw goat’s milk in the form of chloride, gluconate, lactate, and carbonate and tested to determine the pH value and thermal stability of milk. […] In the cooled (25 °C) samples of control milk and milk with calcium addition, the pH value was determined using a FiveEasy pH meter with an electrode InLab® Solids Pro-ISM (Mettler Toledo, Greifensee, Switzerland).
metric: thermal stability of milk during pasteurization

molecule: O=C([O-])[C@H](O)[C@@H](O)[C@H](O)[C@H](O)CO.O=C([O-])[C@H](O)[C@@H](O)[C@H](O)[C@H](O)CO.[Ca+2] [Gluconate, calcium gluconate]
reported: not reduced
//
molecule: O=C([O-])[O-].[Ca+2] [Carbonate, calcium carbonate]
reported: not reduced
//
molecule: CC(O)C(=O)[O-].CC(O)C(=O)[O-].[Ca+2] (stereo not shown) [Lactate, calcium lactate]
reported: not reduced
//
molecule: [Ca+2].[Cl-].[Cl-] [Chloride, Calcium chloride]
reported: not reduced
